Substrate: ICOS as used in the OD read-out of Table E15A (Homo sapiens (Human)) (UniProt Q9Y6W8)
protocol-text: OD read-out, format not told
endpoint-name: parental ratio

Tell me the measured parental ratio of ICOSL ECD-Fc N52S (Fc fusion) DTQEKEVRAMVGSDVELSCACPEGSRFDLNDVYVYWQTSESKTVVTYHIPQSSSLENVDSRYRNRALMSPAGMLRGDFSLRLFNVTPQDEQKFHCLVLSQSLGFQEVLSVEVTLHVAANFSVPVVSAPHSPSQDELTFTCTSINGYPRPNVYWINKTDNSLLDQALQNDTVFLNMRGLYDVVSVLRIARTPSVNIGCCIENVLLQQNLTVGSQTGNDIGERDKITENPVSTGEKNAAT , please.
1.55 ratio to WT

Tell me the measured parental ratio of ICOSL ECD-Fc N52S/Y152H (Fc fusion) DTQEKEVRAMVGSDVELSCACPEGSRFDLNDVYVYWQTSESKTVVTYHIPQSSSLENVDSRYRNRALMSPAGMLRGDFSLRLFNVTPQDEQKFHCLVLSQSLGFQEVLSVEVTLHVAANFSVPVVSAPHSPSQDELTFTCTSINGYPRPNVHWINKTDNSLLDQALQNDTVFLNMRGLYDVVSVLRIARTPSVNIGCCIENVLLQQNLTVGSQTGNDIGERDKITENPVSTGEKNAAT , please.
0.99 ratio to WT

Tell me the measured parental ratio of ICOSL ECD-Fc N52S/D158G (Fc fusion) DTQEKEVRAMVGSDVELSCACPEGSRFDLNDVYVYWQTSESKTVVTYHIPQSSSLENVDSRYRNRALMSPAGMLRGDFSLRLFNVTPQDEQKFHCLVLSQSLGFQEVLSVEVTLHVAANFSVPVVSAPHSPSQDELTFTCTSINGYPRPNVYWINKTGNSLLDQALQNDTVFLNMRGLYDVVSVLRIARTPSVNIGCCIENVLLQQNLTVGSQTGNDIGERDKITENPVSTGEKNAAT , please.
1.55 ratio to WT

Tell me the measured parental ratio of ICOSL ECD-Fc N52S/Y146C/Y152C (Fc fusion) DTQEKEVRAMVGSDVELSCACPEGSRFDLNDVYVYWQTSESKTVVTYHIPQSSSLENVDSRYRNRALMSPAGMLRGDFSLRLFNVTPQDEQKFHCLVLSQSLGFQEVLSVEVTLHVAANFSVPVVSAPHSPSQDELTFTCTSINGCPRPNVCWINKTDNSLLDQALQNDTVFLNMRGLYDVVSVLRIARTPSVNIGCCIENVLLQQNLTVGSQTGNDIGERDKITENPVSTGEKNAAT , please.
1.47 ratio to WT
